Reference source for all entries: patent US20150368338A1

- targetEntity: IFN-α4a (human, UniProt P05014 24-189)
- assayRemarks: cell-based or functional assay
reportedProperty: IC50 (pM), ISRE assay
// return numeric value only (unit: pM, not printed)

[
  {
    "binder": "IFWM3308 (antibody, IgG1, V domains shown) VH: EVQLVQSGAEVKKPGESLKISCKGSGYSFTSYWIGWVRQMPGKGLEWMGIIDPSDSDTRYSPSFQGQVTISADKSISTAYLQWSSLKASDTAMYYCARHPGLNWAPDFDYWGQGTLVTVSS VL: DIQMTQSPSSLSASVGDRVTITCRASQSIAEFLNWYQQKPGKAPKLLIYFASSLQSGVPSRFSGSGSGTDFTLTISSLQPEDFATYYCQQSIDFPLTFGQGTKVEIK",
    "recordedMeasurement": 295
  }
]

Inquiry: What IC50 (pM), ISRE assay value was documented for this binder, IFWM3328 (antibody, IgG1, V domains shown) VH: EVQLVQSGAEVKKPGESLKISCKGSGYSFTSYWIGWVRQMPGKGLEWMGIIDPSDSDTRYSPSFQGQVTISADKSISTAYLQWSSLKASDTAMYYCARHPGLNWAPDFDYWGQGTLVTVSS VL: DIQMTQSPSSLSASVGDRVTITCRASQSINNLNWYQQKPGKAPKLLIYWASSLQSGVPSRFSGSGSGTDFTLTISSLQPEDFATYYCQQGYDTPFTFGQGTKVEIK ?
Reply text: 1170
